Source listed as patent US20080045514A1.

tested on: human Burkitt's lymphoma cell line Namalwa; assay: Caspase cascade activation (EC50), Namalwa; assay type: cell-based; conditions: Homo sapiens, Burkitts lymphoma cell; Namalwa cells; read-out: Caspase potency (EC50) Namalwa
measured parameter: EC50 (nM)

Some compounds with recorded EC50:
INSERT INTO assay_data (smiles_input, measured_parameter, recorded_value) VALUES
  ('Cc1ccc(C2=Nn3c(nnc3-c3cc(N)cn3C)SC2)cc1', 'EC50', 1180),
  ('Cc1ccc(C2=Nn3c(nnc3-c3cc([N+](=O)[O-])cn3C)SC2)cc1', 'EC50', 328),
  ('Cc1ccc(C2=Nn3c(nnc3-c3c(C)nc4ccccn34)SC2)cc1', 'EC50', 66);

A: COc1ccccc1-c1nnc2n1N=C(c1cc(Br)c3c(c1)CCN3)CS2
B: COc1cc(Cl)ccc1-c1nnc2n1N=C(c1ccc(C)cc1)CS2
Field: lower EC50 | Options: A / B Select an item and report its label.
B
(B: 4 nM, A: 31 nM)

###

test system: human B cell lymphoblastoid cell line Ramos; assay: Caspase cascade activation (EC50), Ramos; type: cell-based; settings: RAMOS cells, read-out: caspase potency (EC50) RAMOS
measured parameter: EC50 (nM)
Kindly answer with a numeric value in nM, unit omitted.

Reported EC50, molecule COc1ccc(-c2nnc3n2N=C(c2ccc(N(C)C)cc2)CS3)cc1OC : ____
57

###

system: human breast cancer cell line T-47D; test: Caspase cascade activation (EC50), T-47D; type: cell-based; settings: Homo sapiens; T47D cells; caspase cascade activation; read-out: caspase potency (EC50) T47D
pEC50: −log10 of the molar value. Where a name gives a salt, the structure may show the parent alone.
measured parameter: pEC50

Use these answered entries as a reference point.
INSERT INTO assay_data (compound, recorded_value) VALUES
  ('COc1ccc(-c2nnc3n2N=C(c2ccc(C)cc2)CS3)c(OC)c1 [Example 15, hydrobromide]', 7.47),
  ('CCOc1ccc(C2=Nn3c(nnc3-c3ccc(C)cc3)SC2)cc1', 5.57),
  ('COc1ccccc1-c1nnc2n1NC(c1ccc(C)cc1)CS2 (centres unmarked)', 5.27),
  ('COc1cc(-c2nnc3n2N=C(c2ccc4ccccc4c2)CS3)cc(OC)c1OC', 6.25),
  ('Clc1ccc(-c2nnc3n2N=C(c2ccccc2)CS3)c(Cl)c1', 5.54);

A: CCOc1cccc(-c2nnc3n2N=C(c2ccc(OC)cc2)CS3)c1 [Example D1]
B: COc1cc(OC)cc(-c2nnc3n2N=C(c2ccc4[nH]c(=O)oc4c2)CS3)c1
C: CCOc1cccc(-c2nnc3n2N=C(c2ccc(O)c(O)c2)CS3)c1
D: c1cc2c(cc1C1=Nn3c(nnc3-c3n[nH]c4c3CCC4)SC1)OCO2
E: Cc1ccc(C2=Nn3c(nnc3-c3ccc(Cl)cc3C)SC2)cc1
Put the items in sequence by pEC50, from largest down. The labels, placed in the requested order, form the answer.
E, D, C, A, B
(E: 6.57, D: 6.37, C: 5.88, A: 5.64, B: 5.34)

I: COc1ccc(C2=Nn3c(nnc3-c3ccc(C)cc3)SC2)cc1OC
II: COc1ccc(OC)c(-c2nnc3n2N=C(c2ccc(C)cc2)CS3)c1
Just tell me: smaller pEC50 value, I or II ? Write down the label of the entry you select.
I

A: CCOc1ccc(-c2nnc3n2N=C(c2ccc(O)c(O)c2)CS3)cc1
B: COc1cc(OC)cc(-c2nnc3n2N=C(c2ccc(C)cc2)CS3)c1 [Example 12, hydrochloride]
Consider entries A and B . Which has the numerically lower pEC50? Answer format: the label of the selected item.
A

a: Cc1ccccc1-c1nnc2n1N=C(c1ccc3c(c1)OCO3)CS2
b: COc1ccccc1-c1nnc2n1N=C(c1ccc(C)cc1C)CS2
So which one has the bigger pEC50 here, a or b ? # reply format: chosen label
a

I: COc1cccc(C2=Nn3c(nnc3-c3ccccc3OC)SC2)c1
II: Cc1cc(Cl)ccc1-c1nnc2n1N=C(c1ccc(C)c([N+](=O)[O-])c1)CS2
III: COc1ccc(C2=Nn3c(nnc3-c3cccc(Cl)c3)SC2)cc1
IV: COc1ccccc1-c1nnc2n1N=C(c1ccc(C)c(N)c1)CS2
Rank items: key pEC50, increasing. Please respond with the labels ordered as the question requires.
II, III, I, IV

A: Clc1ccc(-c2nnc3n2N=C(c2ccc4c(c2)OCO4)CS3)cc1
B: COc1ccccc1-c1nnc2n1N=C(c1ccc(C)cc1)CS2 [Example 8, hydrochloride]
From the items above, decide which of A and B has the lower pEC50 reading. Respond using the label that marks the chosen record.
A

a: COc1ccc(C2=Nn3c(nnc3-c3cccc(OC)c3)SC2)cc1
b: COc1cc(-c2nnc3n2N=C(c2ccc(F)cc2)CS3)cc(OC)c1OC
c: Cc1ccc(C2=Nn3c(nnc3-c3ccc(Cl)cc3C)SC2)cc1N
d: CCOc1ccccc1-c1nnc2n1N=C(c1ccc(C)cc1)CS2 [Example 19, hydrobromide]
e: Cc1ccc(C2=Nn3c(nnc3-c3ccoc3C)SC2)cc1
Given 5 compounds, produce a descending ranking by pEC50. Would you mind listing the labels in the order requested?
d, c, a, b, e
(d: 7.46, c: 7.20, a: 6.28, b: 5.88, e: 5.59)

I: COc1ccc(C2=Nn3c(nnc3-c3ccc(F)cc3)SC2)cc1
II: COc1ccc(C2=Nn3c(nnc3-c3ccccc3Cl)SC2)cc1
Which of these two has the smaller recorded pEC50: I or II ? State your choice using its label.
I
(I: 5.78, II: 6.40)

###

tested on: human breast cancer cell line T-47D; experiment: Caspase cascade activation (EC50), T-47D; format: cell-based; settings: Homo sapiens; T47D cells; caspase cascade activation; read-out: caspase potency (EC50) T47D
measured parameter: EC50 (nM)

INSERT INTO assay_data (molecule, recorded_value) VALUES
  ('COc1ccc(C2=Nn3c(nnc3-c3ccccc3Br)SC2)cc1 [Example D3]', 332),
  ('CCOc1ccc(C2=Nn3c(nnc3-c3ccccc3Br)SC2)cc1 [Example A3]', 1080),
  ('COc1cc(C2=Nn3c(nnc3-c3ccccc3OC)SC2)ccc1N [Example 57]', 2640),
  ('COc1ccccc1-c1nnc2n1N=C(c1ccc(N3CCCC3)cc1)CS2 [Example 24]', 91),
  ('COc1ccc(-c2nnc3n2N=C(c2ccc(N=[N+]=[N-])cc2)CS3)cc1OC [Example 31]', 2390),
  ('COc1ccccc1-c1nnc2n1N=C(c1ccc(C)c(C)c1)CS2 [Example 40]', 163),
  ('CCN(CC)c1ccc(C2=Nn3c(nnc3-c3ccc(OC)c(OC)c3)SC2)cc1 [Example 22]', 534),
  ('COc1ccc(C2=Nn3c(nnc3-c3cccc(F)c3)SC2)cc1 [Example C3]', 1710),
  ('CCOc1ccc(C2=Nn3c(nnc3-c3cccc(C)c3)SC2)cc1 [Example O2]', 1420),
  ('COc1ccc(C2=Nn3c(nnc3-c3ccc(OC)c(OC)c3)SC2)cc1OC [Example N1]', 2220);

P: CCOc1ccc(C2=Nn3c(nnc3-c3ccc(Cl)cc3)SC2)cc1 [F]
Q: CCOc1cccc(-c2nnc3n2N=C(c2ccc4c(c2)OCO4)CS3)c1 [Example E1]
R: COc1ccc(C2=Nn3c(nnc3-c3ccc(Cl)cc3)SC2)cc1 [D]
Order by EC50, ascending. Use the labels to give the ranking in the order requested.
R, P, Q
(R: 315 nM, P: 561 nM, Q: 2120 nM)

###

test system: human breast cancer cell line T-47D; assay: Caspase cascade activation (EC50), T-47D; format: cell-based; settings: Homo sapiens; T47D cells; caspase cascade activation; read-out: caspase potency (EC50) T47D
pEC50: −log10 of the molar value.
measured parameter: pEC50

1: COc1cc(-c2nnc3n2N=C(c2ccc(N)cc2)CS3)cc(OC)c1OC [Example 66]
2: COc1ccccc1-c1nnc2n1N=C(c1ccc(Br)cc1)CS2 [W]
Which gives the smaller pEC50 number: 1 or 2 ? Your answer should be the label of the entry you select.
2
(2: 6.50, 1: 7.14)

###

system: human breast cancer cell line T-47D; assay: Caspase cascade activation (EC50), T-47D; type: cell-based; settings: Homo sapiens; T47D cells; caspase cascade activation; read-out: caspase potency (EC50) T47D
Where a name gives a salt, the structure may show the parent alone.
measured parameter: EC50 (nM)

A: COc1ccccc1-c1nnc2n1N=C(c1cc(I)c(N)c(I)c1)CS2
B: COc1cc(-c2nnc3n2N=C(c2ccc(N(C)C)cc2)CS3)cc(OC)c1OC
C: COc1cccc(-c2nnc3n2N=C(c2ccc(C)cc2)CS3)c1OC
D: COc1ccc(-c2nnc3n2N=C(c2ccc(N)cc2)CS3)cc1OC
E: COc1ccc(-c2nnc3n2N=C(c2ccc(C)cc2)CS3)cc1OC [Example 14, hydrobromide]
Returns the items ordered by EC50, from maximum to minimum. Please reply with the labels ordered as requested. Many thanks.
D, A, C, E, B
